These entries and their values trace back to patent US20080207501A1.

# MEASUREMENT_TARGET: T1, CGRP receptor (membranes prepared from SK-N-MC cells) (UniProt Q16602 23-461; O60894 27-148, limits assumed)
# T1 construct: whole, on cells; Endogenous receptor in SK-N-MC cell membranes; also called CGRP receptors; CGRP RBA
# T1 sequence (Q16602 23-461 limits assumed, chain 1 of 2): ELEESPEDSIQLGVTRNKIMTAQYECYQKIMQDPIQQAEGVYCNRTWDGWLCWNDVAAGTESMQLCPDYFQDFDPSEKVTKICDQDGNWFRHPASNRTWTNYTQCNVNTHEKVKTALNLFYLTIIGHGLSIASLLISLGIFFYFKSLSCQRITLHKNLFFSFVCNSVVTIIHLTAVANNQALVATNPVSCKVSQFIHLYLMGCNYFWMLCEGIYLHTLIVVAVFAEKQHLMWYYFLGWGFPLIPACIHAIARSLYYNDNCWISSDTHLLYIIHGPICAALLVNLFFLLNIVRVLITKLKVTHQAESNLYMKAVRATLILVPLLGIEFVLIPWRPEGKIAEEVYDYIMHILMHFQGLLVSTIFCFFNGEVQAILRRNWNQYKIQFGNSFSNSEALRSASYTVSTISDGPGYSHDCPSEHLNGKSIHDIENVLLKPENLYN
# T1 sequence (O60894 27-148 limits assumed, chain 2 of 2): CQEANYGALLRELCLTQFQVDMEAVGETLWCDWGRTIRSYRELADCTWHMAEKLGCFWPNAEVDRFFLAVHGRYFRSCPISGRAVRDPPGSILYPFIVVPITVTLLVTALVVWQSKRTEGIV
# METHOD: radioligand displacement, 125I-hCGRP, SK-N-MC cell membranes
pIC50: −log10 of the molar value. Ends that are not written are not given here.
OBSERVABLE: pIC50

BINDER	READING
GCVLGTCQVQNLSHRLWQLMGPAGRQDSAPVDPSSPHSY-NH2 (ends and bridges not checked) [AFP-6 analog SEQ ID NO: 11]	9.03
GMVLGTMQVQNLSHRLWQLMGPAGRQDSAPVDPSSPHSY-NH2 [AFP-6 analog SEQ ID NO: 26]	7.59
GCNTATCQVQNLSHRLWQLRQDSAPVEPSSPHSY-NH2 (ends and bridges not checked) [AFP-6 analog SEQ ID NO: 37]	6.89
TQAQLLRVGCVLGTCQVQNLSHRLWQLRQDSAPVDPSSPHSY-NH2 (ends and bridges not checked) [AFP-6 analog SEQ ID NO: 16]	8.82
TQAQLLRVGCVLGTCQVQNLSHRLWQLMGPAGRQESAPVEPSSPHSY-NH2 (ends and bridges not checked) [AFP-6 analog SEQ ID NO: 32]	8.64
VGCVLGTCQVQNLSHRLWQLRQDSAPVEPSSPHSY-NH2 (ends and bridges not checked) [AFP-6 analog SEQ ID NO: 36]	7.85
GCSNLSTCQVQNLSHRLWQLRQDSAPVEPSSPHSY-NH2 (ends and bridges not checked) [AFP-6 analog SEQ ID NO: 38]	6.68
TQAQLLRVGMVLGTMQVQNLSHRLWQLMGPAGRQDSAPVDPSSPHSY-NH2 [AFP-6 analog SEQ ID NO: 25]	7.10
VGCGNLSTCQVQNLSHRLWQLRQDSAPVDPSSPHSY-NH2 (ends and bridges not checked) [AFP-6 analog SEQ ID NO: 29]	6.95
TQAQLLRVGCNTATCQVQNLSHRLWQLMGPAGRQDSAPVDPSSPHSY-NH2 (ends and bridges not checked) [AFP-6 analog SEQ ID NO: 21]	8.07
